molecular target: IKZF2 (Homo sapiens (Human), UniProt Q96SW2+Q9UKS7); assay: IKZF2 HiBiT Assay (Jurkat-IKZF2-HiBiT cell line); type: cell-based; settings: Jurkat-IKZF2-HiBiT cells, 24 hours; read-out: HiBit assay degradation analysis DC50
Sequence (Q9UKS7 whole entry): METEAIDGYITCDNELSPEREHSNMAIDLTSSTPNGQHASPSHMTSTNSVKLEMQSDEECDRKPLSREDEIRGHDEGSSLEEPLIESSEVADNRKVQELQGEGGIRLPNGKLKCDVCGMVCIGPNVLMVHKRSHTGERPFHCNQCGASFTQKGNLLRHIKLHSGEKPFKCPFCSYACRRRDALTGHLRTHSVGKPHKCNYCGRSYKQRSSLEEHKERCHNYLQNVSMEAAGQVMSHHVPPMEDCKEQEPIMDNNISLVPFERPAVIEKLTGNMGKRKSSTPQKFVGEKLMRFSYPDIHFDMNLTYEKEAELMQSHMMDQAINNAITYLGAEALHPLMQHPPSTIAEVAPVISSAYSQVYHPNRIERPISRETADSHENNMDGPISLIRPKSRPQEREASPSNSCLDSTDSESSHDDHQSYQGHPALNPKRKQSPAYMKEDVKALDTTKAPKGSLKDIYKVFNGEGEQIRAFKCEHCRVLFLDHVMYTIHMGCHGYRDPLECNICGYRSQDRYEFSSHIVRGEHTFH
Sequence (Q96SW2 whole entry): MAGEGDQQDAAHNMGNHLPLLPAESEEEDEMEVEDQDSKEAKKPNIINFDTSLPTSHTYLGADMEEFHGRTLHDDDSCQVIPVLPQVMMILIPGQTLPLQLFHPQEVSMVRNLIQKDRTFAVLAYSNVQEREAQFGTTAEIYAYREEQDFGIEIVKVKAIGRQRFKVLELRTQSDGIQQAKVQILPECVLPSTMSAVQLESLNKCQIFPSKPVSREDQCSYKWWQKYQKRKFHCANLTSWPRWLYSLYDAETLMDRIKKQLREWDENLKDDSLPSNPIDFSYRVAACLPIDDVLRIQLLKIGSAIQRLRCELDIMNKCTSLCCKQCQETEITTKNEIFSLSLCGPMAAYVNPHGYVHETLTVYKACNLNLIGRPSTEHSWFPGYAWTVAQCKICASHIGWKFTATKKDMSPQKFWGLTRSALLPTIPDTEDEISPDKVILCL
Sequence (Q16531 whole entry partner): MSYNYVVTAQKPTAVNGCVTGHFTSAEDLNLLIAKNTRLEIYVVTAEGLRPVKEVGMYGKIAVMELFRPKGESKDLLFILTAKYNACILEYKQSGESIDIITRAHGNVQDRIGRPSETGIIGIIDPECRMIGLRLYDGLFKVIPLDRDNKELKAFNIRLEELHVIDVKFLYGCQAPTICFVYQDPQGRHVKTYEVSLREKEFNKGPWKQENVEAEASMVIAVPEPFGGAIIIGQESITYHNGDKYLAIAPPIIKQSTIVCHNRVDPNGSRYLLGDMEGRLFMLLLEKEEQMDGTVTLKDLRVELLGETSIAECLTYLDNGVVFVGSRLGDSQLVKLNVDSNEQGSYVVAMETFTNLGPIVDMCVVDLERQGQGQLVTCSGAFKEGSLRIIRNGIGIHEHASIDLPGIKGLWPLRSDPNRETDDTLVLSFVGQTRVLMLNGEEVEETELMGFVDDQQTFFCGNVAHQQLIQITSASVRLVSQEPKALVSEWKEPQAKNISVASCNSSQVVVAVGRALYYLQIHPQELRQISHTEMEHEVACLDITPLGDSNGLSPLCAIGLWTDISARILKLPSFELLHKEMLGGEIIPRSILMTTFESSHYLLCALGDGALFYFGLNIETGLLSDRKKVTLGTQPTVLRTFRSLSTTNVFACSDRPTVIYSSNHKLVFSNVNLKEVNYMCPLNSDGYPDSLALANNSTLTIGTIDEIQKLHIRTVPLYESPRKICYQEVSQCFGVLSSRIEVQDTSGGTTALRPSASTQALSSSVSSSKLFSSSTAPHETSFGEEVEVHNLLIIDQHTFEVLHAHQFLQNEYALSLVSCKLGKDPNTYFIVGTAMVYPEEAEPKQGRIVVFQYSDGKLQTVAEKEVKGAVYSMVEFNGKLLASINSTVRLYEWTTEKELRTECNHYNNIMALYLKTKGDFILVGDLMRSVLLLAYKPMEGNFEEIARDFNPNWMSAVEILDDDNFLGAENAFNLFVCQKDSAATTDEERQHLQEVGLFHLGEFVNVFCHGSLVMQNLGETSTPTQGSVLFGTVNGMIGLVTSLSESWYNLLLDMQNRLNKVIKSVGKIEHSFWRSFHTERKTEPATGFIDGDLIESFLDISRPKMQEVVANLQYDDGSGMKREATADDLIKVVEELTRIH
The following molecules are listed with their measured DC50 values.

O=C1CCC(N2Cc3c(ccc4c3OCC43CCN(Cc4cccc5cccc(F)c45)CC3)C2=O)C(=O)N1 (centres unmarked) :: < 0.05 µM
Cn1ncc2ccc(CN3CCC4(CC3)COc3c4ccc4c3CN(C3CCC(=O)NC3=O)C4=O)cc21 (centres unmarked) :: 0.05 to 0.2 µM
CCC(c1ccccc1)N1CCC2(CC1)COc1c2ccc2c1CN(C1CCC(=O)NC1=O)C2=O (centres unmarked) :: < 0.05 µM
O=C1CCC(N2Cc3c(ccc4c3OCC43CCN(Cc4cccs4)CC3)C2=O)C(=O)N1 (centres unmarked) :: > 0.5 µM
O=C1CCC(N2Cc3c(ccc4c3OCC43CCN(Cc4cccc(-c5cc[nH]n5)c4)CC3)C2=O)C(=O)N1 (centres unmarked) :: < 0.05 µM
O=C1CCC(N2Cc3c(ccc4c3OCC43CCN(Cc4ccc(OC(F)F)cc4)CC3)C2=O)C(=O)N1 (centres unmarked) :: > 0.5 µM

Request: Which DC50 is listed for O=C1CCC(N2Cc3c(ccc4c3OCC43CCN(Cc4nncn4-c4ccccc4)CC3)C2=O)C(=O)N1 (centres unmarked) ?
Result: > 0.5 µM

Request: Try the molecule O=C1CCC(N2Cc3c(ccc4c3OCC43CCN(Cc4cc(F)cc5cc[nH]c45)CC3)C2=O)C(=O)N1 (centres unmarked)
Result: < 0.05 µM

Request: Try the molecule O=C1CCC(N2Cc3c(ccc4c3OCC43CCN(Cc4cccc5c4OCCO5)CC3)C2=O)C(=O)N1 (centres unmarked)
Result: > 0.5 µM

Request: Try the molecule O=C1CCC(N2Cc3c(ccc4c3OCC43CCN(Cc4cccc(OCc5ccccn5)c4)CC3)C2=O)C(=O)N1 (centres unmarked)
Result: < 0.05 µM

###

biological target: IKZF2 (Homo sapiens (Human), UniProt Q96SW2+Q9UKS7); experiment: IKZF2 HiBiT Assay (Jurkat-IKZF2-HiBiT cell line); type: cell-based; conditions: Jurkat-IKZF2-HiBiT cells, 24 hours; read-out: HiBit assay degradation analysis Dmax
parameter: Dmax

Example entries and their recorded answers appear below.
CCOc1cc(CN2CCC3(CC2)COc2c3ccc3c2CN(C2CCC(=O)NC2=O)C3=O)ccn1 (centres unmarked) :: < 40%
O=C1CC[C@H](N2Cc3c(ccc4c3OCC43CCN(Cc4cnn(S(=O)(=O)c5ccc(F)cc5)c4)CC3)C2=O)C(=O)N1 :: 40 to 60%
O=C1CCC(N2Cc3c(ccc4c3OCCC43CCN(Cc4ccc(C(F)F)cc4)CC3)C2=O)C(=O)N1 (centres unmarked) :: < 40%

Request: Which Dmax is listed for O=C1CCC(N2Cc3c(ccc4c3OCC43CCN(Cc4ccc(F)c(F)c4)CC3)C2=O)C(=O)N1 (centres unmarked) ?
Result: < 40%

Request: Try the compound O=C1CCC(N2Cc3c(ccc4c3OCC43CCN(Cc4cccc(-c5ncon5)c4)CC3)C2=O)C(=O)N1 (centres unmarked)
Result: 60 to 80%

Request: Try the compound CC(F)(F)c1ccc(CN2CCC3(CC2)COc2c3ccc3c2CN(C2CCC(=O)NC2=O)C3=O)cc1 (centres unmarked)
Result: < 40%

Request: Try the compound O=C1CCC(N2Cc3c(ccc4c3OCC43CCN(Cc4cccc(-c5cn[nH]c5)c4)CC3)C2=O)C(=O)N1 (centres unmarked)
Result: > 80%

Request: Try the compound O=C1CCC(N2Cc3c(ccc4c3OCC43CCN(Cc4cccc5ncccc45)CC3)C2=O)C(=O)N1 (centres unmarked)
Result: 60 to 80%

Request: Try the compound O=C1CCC(N2Cc3c(ccc4c3OCC43CCN(CC4CCCC4)CC3)C2=O)C(=O)N1 (centres unmarked)
Result: < 40%

Request: Try the compound Cn1cc2ccc(CN3CCC4(CC3)COc3c4ccc4c3CN([C@H]3CCC(=O)NC3=O)C4=O)cc2n1
Result: 60 to 80%

Entry source: patent US20250215012A1
